assay: Phase solubility in deionized water (HPLC); assay type: physicochemical; conditions: deionized water, pH 4.4, water, thermodynamic from solid; deionized H2O; quadruplicates; read-out: Solubility
Quantity kind: solubility at 24 h (µg/mL)
The response must be a number in µg/mL with no trailing unit.

Lookup: Look up solubility at 24 h for this molecule: O=c1c2nc(Br)n(C3OC4COP(O)(=S)OC4C3O)c2nc2[nH]c(-c3ccccc3)cn12 (stereo not shown)
Found: 8800

====

assay: Polymorph screen, approximate solubility in solvents (UHPLC); type: physicochemical; conditions: organic solvent or mixture, thermodynamic from solid; solvent DMF; solution
Quantity kind: solubility

Lookup: Look up solubility for this compound: O=c1c2nc(Br)n(C3OC4COP(O)(=S)OC4C3O)c2nc2[nH]c(-c3ccccc3)cn12 (stereo not shown)
Found: > 40 mg/mL

====

# Lookup of reported pH at saturation solubility keyed by entry
assay: Phase solubility in deionized water (HPLC); assay type: physicochemical; settings: deionized H2O; quadruplicates

Examples from the recorded data:
{"Compound": "O=c1c2nc(Br)n([C@@H]3O[C@@H]4COP(=O)(S)O[C@H]4[C@H]3O)c2nc2[nH]c(-c3ccccc3)cn12 (some centres unmarked)", "pH at saturation solubility": "2.5 (±0.2)"}
{"Compound": "O=c1c2nc(Br)n(C3OC4COP(O)(=S)OC4C3O)c2nc2[nH]c(-c3ccccc3)cn12 (centres unmarked)", "pH at saturation solubility": "4.4 (±0.4)"}
{"Compound": "NC(CO)(CO)CO.O=c1c2nc(Br)n([C@@H]3O[C@@H]4CO[P@@](O)(=S)O[C@H]4[C@H]3O)c2nc2[nH]c(-c3ccccc3)cn12", "pH at saturation solubility": "8.5 (±0.1)"}
{"Compound": "N.O=c1c2nc(Br)n([C@@H]3O[C@@H]4COP(=O)(S)O[C@H]4[C@H]3O)c2nc2[nH]c(-c3ccccc3)cn12 (some centres unmarked)", "pH at saturation solubility": "3.2 (±0.1)"}
{"Compound": "O=c1c2nc(Br)n([C@@H]3O[C@@H]4CO[P@@](O)(=S)O[C@H]4[C@H]3O)c2nc2[nH]c(-c3ccccc3)cn12.O=c1c2nc(Br)n([C@@H]3O[C@@H]4CO[P@@](O)(=S)O[C@H]4[C@H]3O)c2nc2[nH]c(-c3ccccc3)cn12.c1ccc(CNCCNCc2ccccc2)cc1", "pH at saturation solubility": "6.8 (±0.1)"}
{"Compound": "O=c1c2nc(Br)n([C@@H]3O[C@@H]4CO[P@@](O)(=S)O[C@H]4[C@H]3O)c2nc2[nH]c(-c3ccccc3)cn12.c1ccc(CCNCc2ccccc2)cc1", "pH at saturation solubility": "7.2 (±0.04)"}
{"Compound": "O=c1c2nc(Br)n([C@@H]3O[C@@H]4COP(=O)([S-])O[C@H]4[C@H]3O)c2nc2[nH]c(-c3ccccc3)cn12.[Na+] (some centres unmarked)", "pH at saturation solubility": "5.5 (±0.2)"}

Lookup: Look up pH at saturation solubility for this compound: O=c1c2nc(Br)n([C@@H]3O[C@@H]4COP(=O)([S-])O[C@H]4[C@H]3O)c2nc2[nH]c(-c3ccccc3)cn12.O=c1c2nc(Br)n([C@@H]3O[C@@H]4COP(=O)([S-])O[C@H]4[C@H]3O)c2nc2[nH]c(-c3ccccc3)cn12.[Ca+2] (some centres unmarked)
Found: 6.9 (±0.5)

====

experiment: Polymorph screen, approximate solubility in solvents (UHPLC); type: physicochemical; settings: organic solvent or mixture, thermodynamic from solid; solvent MeTHF
Quantity kind: solubility (µg/mL)
The response must be a number in µg/mL with no trailing unit.

Lookup: Look up solubility for this molecule: O=c1c2nc(Br)n(C3OC4COP(O)(=S)OC4C3O)c2nc2[nH]c(-c3ccccc3)cn12 (stereo not shown)
Found: 10

====

experiment: Phase solubility in deionized water (HPLC); assay type: physicochemical; conditions: deionized water, pH 4.38, water, thermodynamic from solid; supplement; read-out: Aqueous solubility measurements
Quantity kind: solubility at 24 h (µg/mL)
The response must be a number in µg/mL with no trailing unit.

Lookup: Look up solubility at 24 h for this compound: O=c1c2nc(Br)n(C3OC4COP(O)(=S)OC4C3O)c2nc2[nH]c(-c3ccccc3)cn12 (stereo not shown)
Found: 8900

====

Test: Dynamic vapor sorption (DVS), water sorption as Δm
Format: physicochemical
Settings: 95 % RH, sorption cycle 1 (S1), 25 °C
Protocol: The samples were analyzed at 25 °C with a Surface Measurements Systems DVS Advantage. A sample was weighted into a weighing pan and its mass was monitored while it was exposed to different relative humidities (%RH=%P/P0). Before the analysis, the weighing pan was subject to an antistatic program. The analysis program consisted of two cycles. […]
Quantity kind: Water sorption Δm (%)
The response must be a number in % with no trailing unit.

{"Compound": "O=c1c2nc(Br)n([C@@H]3O[C@@H]4COP(=O)([S-])O[C@H]4[C@H]3O)c2nc2[nH]c(-c3ccccc3)cn12.O=c1c2nc(Br)n([C@@H]3O[C@@H]4COP(=O)([S-])O[C@H]4[C@H]3O)c2nc2[nH]c(-c3ccccc3)cn12.[Ca+2] (stereo partly shown) [cGMPSA‐Ca]", "Measurement": 21.9}
{"Compound": "O=c1c2nc(Br)n([C@@H]3O[C@@H]4COP(=O)([S-])O[C@H]4[C@H]3O)c2nc2[nH]c(-c3ccccc3)cn12.[Na+] (stereo partly shown) [cGMPSA‐Na]", "Measurement": 15.1}
{"Compound": "NC(CO)(CO)CO.O=c1c2nc(Br)n([C@@H]3O[C@@H]4CO[P@@](O)(=S)O[C@H]4[C@H]3O)c2nc2[nH]c(-c3ccccc3)cn12 [cGMPSA‐Tris]", "Measurement": 32.8}
{"Compound": "O=c1c2nc(Br)n([C@@H]3O[C@@H]4CO[P@@](O)(=S)O[C@H]4[C@H]3O)c2nc2[nH]c(-c3ccccc3)cn12.c1ccc(CCNCc2ccccc2)cc1 [cGMPSA‐Bnet]", "Measurement": 8.0}
{"Compound": "O=c1c2nc(Br)n([C@@H]3O[C@@H]4CO[P@@](O)(=S)O[C@H]4[C@H]3O)c2nc2[nH]c(-c3ccccc3)cn12.O=c1c2nc(Br)n([C@@H]3O[C@@H]4CO[P@@](O)(=S)O[C@H]4[C@H]3O)c2nc2[nH]c(-c3ccccc3)cn12.c1ccc(CNCCNCc2ccccc2)cc1 [cGMPSA‐BZ]", "Measurement": 4.8}
{"Compound": "O=c1c2nc(Br)n(C3OC4COP(O)(=S)OC4C3O)c2nc2[nH]c(-c3ccccc3)cn12 (stereo not shown) [cGMPSA‐TEA]", "Measurement": 5.0}

From here, focus on the item given below.
Lookup: Look up Water sorption Δm for this compound: O=c1c2nc(Br)n([C@@H]3O[C@@H]4COP(=O)(S)O[C@H]4[C@H]3O)c2nc2[nH]c(-c3ccccc3)cn12 (stereo partly shown) [cGMPSA‐H]
Found: 9.1

====

assay: Dynamic vapor sorption (DVS), water sorption as Δm; type: physicochemical; settings: 0 % RH, after final desorption cycle 2 (D2), 25 °C
# Lookup of reported Water sorption Δm keyed by entry
The response must be a number in % with no trailing unit.

Examples from the recorded data:
{"Molecule": "O=c1c2nc(Br)n([C@@H]3O[C@@H]4COP(=O)(S)O[C@H]4[C@H]3O)c2nc2[nH]c(-c3ccccc3)cn12 (stereo partly shown) [cGMPSA‐H]", "Unit abbreviation": "%", "Measurement": 0.3}
{"Molecule": "O=c1c2nc(Br)n([C@@H]3O[C@@H]4CO[P@@](O)(=S)O[C@H]4[C@H]3O)c2nc2[nH]c(-c3ccccc3)cn12.O=c1c2nc(Br)n([C@@H]3O[C@@H]4CO[P@@](O)(=S)O[C@H]4[C@H]3O)c2nc2[nH]c(-c3ccccc3)cn12.c1ccc(CNCCNCc2ccccc2)cc1 [cGMPSA‐BZ]", "Unit abbreviation": "%", "Measurement": "−0.2"}
{"Molecule": "O=c1c2nc(Br)n([C@@H]3O[C@@H]4COP(=O)([S-])O[C@H]4[C@H]3O)c2nc2[nH]c(-c3ccccc3)cn12.[Na+] (stereo partly shown) [cGMPSA‐Na]", "Unit abbreviation": "%", "Measurement": "−0.3"}

Lookup: Look up Water sorption Δm for this molecule: O=c1c2nc(Br)n(C3OC4COP(O)(=S)OC4C3O)c2nc2[nH]c(-c3ccccc3)cn12 (stereo not shown) [cGMPSA‐TEA]
Found: −1.0

====

assay: Polymorph screen, approximate solubility in solvents (UHPLC); format: physicochemical; conditions: organic solvent or mixture, thermodynamic from solid; solvent EtOH+THF 1 : 1 v/v; solution
Quantity kind: solubility

Lookup: Look up solubility for this compound: O=c1c2nc(Br)n(C3OC4COP(O)(=S)OC4C3O)c2nc2[nH]c(-c3ccccc3)cn12 (stereo not shown) [cGMPSA‐TEA]
Found: > 40 mg/mL
